Consider the following molecules; for each one, report its percent inhibition of viability.
tested on: IMC-1 (IL-2 20 ng/mL); assay: percent inhibition of viability; higher = more inhibition; conditions: 72 h; 10000 nM
Give bare numbers, in %.

Previously resolved entries follow.
| Molecule | percent inhibition of viability, % |
| --- | --- |
| CNCc1ccc(-c2[nH]c3cc(F)cc4c3c2CCNC4=O)cc1 [Rucaparib] (max concentration tested 10000 nM) | 30.4 |
| CCC1=C[C@@H]2CN(C1)Cc1c([nH]c3ccccc13)[C@@](C(=O)OC)(c1cc3c(cc1OC)N(C)[C@H]1[C@@](O)(C(=O)OC)[C@H](OC(C)=O)[C@]4(CC)C=CCN5CC[C@]31[C@@H]54)C2 [Vinorelbine] (max concentration tested 10000 nM) | 101 |
| O[C@H]1CC[C@H](Nc2ncc3nc(Nc4c(F)cc(F)cc4F)n([C@H]4CCOC4)c3n2)CC1 [Tanzisertib] (max concentration tested 10000 nM) | 5.65 |
| CN(C)Cc1ccc(S(=O)(=O)n2ccc(/C=C/C(=O)NO)c2)cc1 [Resminostat] (max concentration tested 10000 nM) | 101 |

Shift focus to the following entry.
Consider S=C(NCc1ccc2c(c1)OCO2)N1CCN(c2ncnc3c2oc2ccccc23)CC1 [Amuvatinib] (max concentration tested 10000 nM) . Its measured percent inhibition of viability is 44.1

* * *

test system: normal NK cells expanded with K562-aAPC; assay: percent inhibition of viability; higher = more inhibition; settings: 72 h; IL-2 2.5 ng/mL; 10 nM
Consider the following compounds; for each one, report its percent inhibition of viability.
Give bare numbers, in %.

Previously resolved entries follow.
| Compound | Assayed system | percent inhibition of viability [%] |
| --- | --- | --- |
| O=C(NC1CCNCC1)c1n[nH]cc1NC(=O)c1c(Cl)cccc1Cl [AT7519] (max concentration tested 10000 nM) | normal NK cells expanded with K562-aAPC | 0.1 |
| Nc1ccn([C@@H]2O[C@H](CO)[C@@H](O)C2(F)F)c(=O)n1 [Gemcitabine] (max concentration tested 1000 nM) | normal NK cells expanded with K562-aAPC | 55.6 |

Shift focus to the following entry.
percent inhibition of viability of COc1cc2c(Oc3ccc(NC(=O)C4(C(=O)Nc5ccc(F)cc5)CC4)cc3F)ccnc2cc1OCCCN1CCOCC1 [Foretinib] (max concentration tested 1000 nM) , assay on normal NK cells expanded with K562-aAPC, is -3.74

* * *

system: KHYG-1 (IL-2 2.5 ng/mL); experiment: percent inhibition of viability; higher = more inhibition; settings: 72 h; 1 nM
Measurement type: percent inhibition of viability (%)
Numbers only, in %.

Previously resolved entries follow.
| Compound | Measurement type | Units | Reported measurement |
| --- | --- | --- | --- |
| c1ccc([C@H]2CN3CCSC3=N2)cc1 [Levamisole] (max concentration tested 10000 nM) | percent inhibition of viability | % | -4.84 |
| Cn1cc(CNCC2CCN(c3ncc(C(=O)NO)cn3)CC2)c2ccccc21 [Quisinostat] (max concentration tested 1000 nM) | percent inhibition of viability | % | -1.8 |
| CN(C)/N=N/c1[nH]cnc1C(N)=O [Dacarbazine] (max concentration tested 10000 nM) | percent inhibition of viability | % | -1.18 |
| CC(C)C[C@H](NC(=O)[C@@H](COC(C)(C)C)NC(=O)[C@H](Cc1ccc(O)cc1)NC(=O)[C@H](CO)NC(=O)[C@H](Cc1c[nH]c2ccccc12)NC(=O)[C@H](Cc1cnc[nH]1)NC(=O)[C@@H]1CCC(=O)N1)C(=O)N[C@@H](CCCNC(=N)N)C(=O)N1CCC[C@H]1C(=O)NNC(N)=O [Goserelin] (max concentration tested 10000 nM) | percent inhibition of viability | % | -5.2 |

Consider COc1ccc(-c2ccc3c(N4CCOC[C@@H]4C)nc(N4CCOC[C@@H]4C)nc3n2)cc1CO [AZD8055] (max concentration tested 10000 nM) . Its measured percent inhibition of viability is 3.41

* * *

Consider the following compounds; for each one, report its percent inhibition of viability.
system: DERL-7 (IL-2 2.5 ng/mL); assay: percent inhibition of viability; higher = more inhibition; details: 72 h; 0.1 nM
Numbers only, in %.

Previously resolved entries follow.
| Compound | percent inhibition of viability [%] |
| --- | --- |
| CCC/C=C/C=C/C(=O)O[C@H]1/C(=C/C(=O)OC)C[C@H]2C[C@H]([C@@H](C)O)OC(=O)C[C@H](O)C[C@@H]3C[C@H](OC(C)=O)C(C)(C)[C@](O)(C[C@@H]4C/C(=C/C(=O)OC)C[C@H](/C=C/C(C)(C)[C@]1(O)O2)O4)O3 [Bryostatin 1] (max concentration tested 100 nM) | -19.4 |
| CC[C@@H]1C(=O)N(C)c2cnc(Nc3ccc(C(=O)N[C@H]4CC[C@H](N5CCN(CC6CC6)CC5)CC4)cc3OC)nc2N1C(C)C [Volasertib] (max concentration tested 1000 nM) | 6.13 |
| Cn1cc(CNCC2CCN(c3ncc(C(=O)NO)cn3)CC2)c2ccccc21 [Quisinostat] (max concentration tested 1000 nM) | 4.2 |

Shift focus to the following entry.
Consider CNC(=O)c1ccc(C)c(-n2c(C)cc(OCc3ccc(F)cc3F)c(Br)c2=O)c1 (max concentration tested 1000 nM) . Its measured percent inhibition of viability is -0.31

* * *

Consider the following compounds; for each one, report its percent inhibition of viability.
tested on: NK-YS (IL-2 2.5 ng/mL); assay: percent inhibition of viability; higher = more inhibition; conditions: 72 h; 10000 nM
Answers are plain numbers, in %.

Previously resolved entries follow.
| Compound | percent inhibition of viability (%) |
| --- | --- |
| CN1CCc2c(c3ccccc3n2Cc2ccc(C(=O)NO)cc2)C1 [Tubastatin A] (max concentration tested 10000 nM) | 54.1 |
| COc1cc2c(cc1-c1c(C)noc1C)ncc1[nH]c(=O)n([C@H](C)c3ccccn3)c12 [I-BET151] (max concentration tested 10000 nM) | 86 |
| COc1cc2ncnc(Oc3cccc(NC(=O)Nc4cc(C(C)(C)C(F)(F)F)on4)c3)c2cc1OC (max concentration tested 10000 nM) | 22.5 |
| CN(C)Cc1ccc(S(=O)(=O)n2ccc(/C=C/C(=O)NO)c2)cc1 [Resminostat] (max concentration tested 10000 nM) | 103 |
| Cc1c(C(=O)Nc2ccc(N3C[C@@H](C)O[C@@H](C)C3)nc2)cccc1-c1ccc(OC(F)(F)F)cc1 [Sonidegib] (max concentration tested 10000 nM) | 31.1 |

Shift focus to the following entry.
Consider Cc1cc(OCc2nnc(SC3CCCC3)n2-c2cccnc2)ccc1-c1ccc(S(C)(=O)=O)cc1 [NMS-873] (max concentration tested 10000 nM) . Its measured percent inhibition of viability is 107

* * *

tested on: normal primary NK cells, pool 3 (3 donors) (IL-2 2.5 ng/mL); assay: percent inhibition of viability; higher = more inhibition; conditions: 72 h; 100 nM
Measurement type: percent inhibition of viability (%)
Give bare numbers, in %.

| Compound | Measurement type | Units | Reported measurement |
| --- | --- | --- | --- |
| CCC1=C[C@@H]2CN(C1)Cc1c([nH]c3ccccc13)[C@@](C(=O)OC)(c1cc3c(cc1OC)N(C)[C@H]1[C@@](O)(C(=O)OC)[C@H](OC(C)=O)[C@]4(CC)C=CCN5CC[C@]31[C@@H]54)C2 [Vinorelbine] (max concentration tested 10000 nM) | percent inhibition of viability | % | 14.5 |
| CNNCc1ccc(C(=O)NC(C)C)cc1 [Procarbazine] (max concentration tested 10000 nM) | percent inhibition of viability | % | -5.98 |
| CCCCCOC(=O)Nc1nc(=O)n([C@@H]2O[C@H](C)[C@@H](O)[C@H]2O)cc1F [Capecitabine] (max concentration tested 10000 nM) | percent inhibition of viability | % | 1.92 |
| Cc1cc(Nc2cc(N3CCN(C)CC3)nc(Sc3ccc(NC(=O)C4CC4)cc3)n2)n[nH]1 [Tozasertib] (max concentration tested 10000 nM) | percent inhibition of viability | % | 0.04 |

Below are 4 compounds. Give each one its percent inhibition of viability.
1. Cc1ncc(-c2ccnc(Nc3ccc(S(C)(=O)=O)cc3)n2)n1C(C)C [AZD-5438] (max concentration tested 10000 nM)
2. CN(C)Cc1ccc(S(=O)(=O)n2ccc(/C=C/C(=O)NO)c2)cc1 [Resminostat] (max concentration tested 10000 nM)
3. CC[C@@H]1C(=O)N(C)c2cnc(Nc3ccc(C(=O)N[C@H]4CC[C@H](N5CCN(CC6CC6)CC5)CC4)cc3OC)nc2N1C(C)C [Volasertib] (max concentration tested 1000 nM)
4. O=C(NOCC1CC1)c1ccc(F)c(F)c1Nc1ccc(I)cc1Cl (max concentration tested 10000 nM)

[1.54, 3.8, -7.36, -3.93]
